- assay_system: GCase (Cerezyme) (Homo sapiens, UniProt P04062, R534H)
- Sequence (P04062 40-536 R534H): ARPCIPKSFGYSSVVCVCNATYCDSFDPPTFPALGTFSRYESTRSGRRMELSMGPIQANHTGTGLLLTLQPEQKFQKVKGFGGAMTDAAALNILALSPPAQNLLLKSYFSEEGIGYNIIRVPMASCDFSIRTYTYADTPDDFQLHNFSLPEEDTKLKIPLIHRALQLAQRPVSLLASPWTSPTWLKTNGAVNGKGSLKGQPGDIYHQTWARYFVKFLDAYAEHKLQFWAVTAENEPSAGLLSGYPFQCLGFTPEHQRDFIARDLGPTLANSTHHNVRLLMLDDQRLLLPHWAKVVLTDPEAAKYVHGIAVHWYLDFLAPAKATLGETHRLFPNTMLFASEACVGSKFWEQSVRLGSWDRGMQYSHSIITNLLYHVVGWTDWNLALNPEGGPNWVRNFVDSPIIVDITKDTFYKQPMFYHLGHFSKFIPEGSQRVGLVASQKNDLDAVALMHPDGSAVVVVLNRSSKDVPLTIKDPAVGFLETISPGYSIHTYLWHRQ
- assay_summary: Thermal stability assay for GCase
- Assay type: binding
- reported_conditions: pH 7.2, inhibitor 5 mM
value_type: Tm (°C)
Give the number; °C is assumed, so skip it.

Would you please look over these solved cases?
compound	unit_abbrev	meas_value
OC[C@H]1CNC[C@@H](O)[C@@H]1O [IFG, isofagomine, reference compound]	°C	70.3
Cl.OCCN1C[C@H](O)[C@@H](O)[C@H](O)[C@@H](O)C1	°C	52.1
Cl.O[C@H]1[C@H](O)[C@@H](O)CNC[C@@H]1O	°C	52.5

Then there is this compound:
# input // returns reported Tm for input Cl.OCCOCCN1C[C@H](O)[C@@H](O)[C@H](O)[C@@H](O)C1
# output 53.6

----------
- assay_system: GCase (Cerezyme) (Homo sapiens, UniProt P04062, R534H)
- assay_summary: Thermal stability assay for GCase
- Assay type: binding
- reported_conditions: pH 5.2, read-out: ΔTm
value_type: ΔTm at 10000 µM (°C)
Give the number; °C is assumed, so skip it.

compound	ΔTm at 10000 µM, °C
Cl.OCCN1C[C@H](O)[C@@H](O)[C@H](O)[C@@H](O)C1 [Compound 2]	1.7

# input Form entry - test system: GCase (Cerezyme) (Homo sapiens, UniProt P04062, R534H); read-out: ΔTm at 10000 µM; compound: OC[C@H]1CNC[C@@H](O)[C@@H]1O [IFG, isofagomine, reference compound]
# output 7.8

# input What about this compound? Cl.OCCOCCN1C[C@H](O)[C@@H](O)[C@H](O)[C@@H](O)C1 [Compound 3]
# output 1

# input What about this compound? Cl.O[C@H]1[C@H](O)[C@@H](O)CNC[C@@H]1O [Compound 1]
# output 3.2

----------
# Tm listing for each entry below
- assay_system: GCase (Cerezyme) (Homo sapiens, UniProt P04062, R534H)
- assay_summary: Thermal stability assay for GCase
- Format: binding
- reported_conditions: pH 7.2, inhibitor 0.5 mM

Would you please look over these solved cases?
compound	Tm
Cl.OCCN1C[C@H](O)[C@@H](O)[C@H](O)[C@@H](O)C1	48.7 ± 0.1 °C
OC[C@H]1CNC[C@@H](O)[C@@H]1O [IFG, isofagomine, reference compound]	63.8 ± 0.3 °C
Cl.O[C@H]1[C@H](O)[C@@H](O)CNC[C@@H]1O	48.5 ± 0.1 °C

Then there is this compound:
# input // returns reported Tm for input Cl.OCCOCCN1C[C@H](O)[C@@H](O)[C@H](O)[C@@H](O)C1
# output 50.7 ± 0.0 °C

----------
- assay_system: GCase (Cerezyme) (Homo sapiens, UniProt P04062, R534H)
- assay_summary: Thermal stability assay for GCase
- Assay type: binding
- reported_conditions: pH 7.2, read-out: ΔTm
value_type: ΔTm at 10000 µM (°C)
Give the number; °C is assumed, so skip it.

Would you please look over these solved cases?
compound	ΔTm at 10000 µM, °C
OC[C@H]1CNC[C@@H](O)[C@@H]1O [IFG, isofagomine, reference compound]	25.7
Cl.O[C@H]1[C@H](O)[C@@H](O)CNC[C@@H]1O	7.5

# input Form entry - test system: GCase (Cerezyme) (Homo sapiens, UniProt P04062, R534H); read-out: ΔTm at 10000 µM; compound: Cl.OCCN1C[C@H](O)[C@@H](O)[C@H](O)[C@@H](O)C1
# output 6.5

# input What about this compound? Cl.OCCOCCN1C[C@H](O)[C@@H](O)[C@H](O)[C@@H](O)C1
# output 5.8

----------
# Tm listing for each entry below
- assay_system: GCase (Cerezyme) (Homo sapiens, UniProt P04062, R534H)
- assay_summary: Thermal stability assay for GCase
- Type: binding
- reported_conditions: pH 7.2, inhibitor 2 mM
Give the number; °C is assumed, so skip it.

Would you please look over these solved cases?
compound	assay_system	meas_value
Cl.O[C@H]1[C@H](O)[C@@H](O)CNC[C@@H]1O	GCase (Cerezyme) (Homo sapiens, UniProt P04062, R534H)	49.9
Cl.OCCN1C[C@H](O)[C@@H](O)[C@H](O)[C@@H](O)C1	GCase (Cerezyme) (Homo sapiens, UniProt P04062, R534H)	50.1
OC[C@H]1CNC[C@@H](O)[C@@H]1O [IFG, isofagomine, reference compound]	GCase (Cerezyme) (Homo sapiens, UniProt P04062, R534H)	67.2

Then there is this compound:
# input // returns reported Tm for input Cl.OCCOCCN1C[C@H](O)[C@@H](O)[C@H](O)[C@@H](O)C1
# output 52.6

----------
- assay_system: GCase (Cerezyme) (Homo sapiens, UniProt P04062, R534H)
- assay_summary: Thermal stability assay for GCase
- Assay type: binding
- reported_conditions: pH 5.2, read-out: ΔTm
# ΔTm at 5000 µM listing for each entry below
Give the number; °C is assumed, so skip it.

# input // returns reported ΔTm at 5000 µM for input Cl.OCCOCCN1C[C@H](O)[C@@H](O)[C@H](O)[C@@H](O)C1
# output 1.3

# input What about this compound? Cl.OCCN1C[C@H](O)[C@@H](O)[C@H](O)[C@@H](O)C1
# output 1.7

# input What about this compound? OC[C@H]1CNC[C@@H](O)[C@@H]1O [IFG, isofagomine, reference compound]
# output 11.6

# input What about this compound? Cl.O[C@H]1[C@H](O)[C@@H](O)CNC[C@@H]1O
# output 2.7

----------
# ΔTm at 1000 µM listing for each entry below
- assay_system: GCase (Cerezyme) (Homo sapiens, UniProt P04062, R534H)
- assay_summary: Thermal stability assay for GCase
- Assay type: binding
- reported_conditions: pH 5.2, read-out: ΔTm
Give the number; °C is assumed, so skip it.

compound	unit_abbrev	meas_value
Cl.OCCN1C[C@H](O)[C@@H](O)[C@H](O)[C@@H](O)C1	°C	0.3
Cl.OCCOCCN1C[C@H](O)[C@@H](O)[C@H](O)[C@@H](O)C1	°C	0.2

# input // returns reported ΔTm at 1000 µM for input Cl.O[C@H]1[C@H](O)[C@@H](O)CNC[C@@H]1O
# output 0.8

# input What about this compound? OC[C@H]1CNC[C@@H](O)[C@@H]1O [IFG, isofagomine, reference compound]
# output 13

----------
- assay_system: GCase (Cerezyme) (Homo sapiens, UniProt P04062, R534H)
- assay_summary: Thermal stability assay for GCase
- Type: binding
- reported_conditions: pH 7.2, read-out: ΔTm
value_type: ΔTm at 5000 µM (°C)
Give the number; °C is assumed, so skip it.

compound	assay_system	unit_abbrev	ΔTm at 5000 µM
OC[C@H]1CNC[C@@H](O)[C@@H]1O [IFG, isofagomine, reference compound]	GCase (Cerezyme) (Homo sapiens, UniProt P04062, R534H)	°C	23.4
Cl.O[C@H]1[C@H](O)[C@@H](O)CNC[C@@H]1O [Compound 1]	GCase (Cerezyme) (Homo sapiens, UniProt P04062, R534H)	°C	5.4
Cl.OCCOCCN1C[C@H](O)[C@@H](O)[C@H](O)[C@@H](O)C1 [Compound 3]	GCase (Cerezyme) (Homo sapiens, UniProt P04062, R534H)	°C	5

# input // returns reported ΔTm at 5000 µM for input Cl.OCCN1C[C@H](O)[C@@H](O)[C@H](O)[C@@H](O)C1 [Compound 2]
# output 5

----------
- assay_system: GCase (Cerezyme) (Homo sapiens, UniProt P04062, R534H)
- assay_summary: Thermal stability assay for GCase
- Format: binding
- reported_conditions: pH 7.2, read-out: ΔTm
value_type: ΔTm at 2000 µM (°C)
Give the number; °C is assumed, so skip it.

Would you please look over these solved cases?
compound	assay_system	meas_value
Cl.O[C@H]1[C@H](O)[C@@H](O)CNC[C@@H]1O [Compound 1]	GCase (Cerezyme) (Homo sapiens, UniProt P04062, R534H)	2.8
OC[C@H]1CNC[C@@H](O)[C@@H]1O [IFG, isofagomine, reference compound]	GCase (Cerezyme) (Homo sapiens, UniProt P04062, R534H)	20.2
Cl.OCCOCCN1C[C@H](O)[C@@H](O)[C@H](O)[C@@H](O)C1 [Compound 3]	GCase (Cerezyme) (Homo sapiens, UniProt P04062, R534H)	3.9

# input // returns reported ΔTm at 2000 µM for input Cl.OCCN1C[C@H](O)[C@@H](O)[C@H](O)[C@@H](O)C1 [Compound 2]
# output 3.1
